molecules and their reported Ratio
Tested on: Nucleic Acid
Experiment: Binding affinity to Escherichia coli 23S rRNA U2585 assessed as degree of protection against CMCT at 5 uM by Chemical footprinting analysis relative to control
Format: nucleic-acid assay
# answer = number (no unit)

Consider the following illustrative entries.
>  <compound.string>
C=C[C@]1(C)C[C@@H](OC(=O)Cn2cc(COCn3cnc4c(N)ncnc43)nn2)[C@]2(C)[C@H](C)CC[C@]3(CCC(=O)[C@H]32)[C@@H](C)[C@@H]1O

>  <metric>
Ratio

>  <value.reported>
0.37

$$$$
>  <compound.string>
C=C[C@]1(C)C[C@@H](OC(=O)CSCCN(CC)CC)[C@]2(C)[C@H](C)CC[C@]3(CCC(=O)[C@H]32)[C@@H](C)[C@@H]1O

>  <metric>
Ratio

>  <value.reported>
0.54

$$$$

Then this molecule:
Ask | Which Ratio is reported for this molecule? `C=C[C@]1(C)C[C@@H](OC(=O)Cn2cc(/C=C/Cn3cnc4c(N)ncnc43)nn2)[C@]2(C)[C@H](C)CC[C@]3(CCC(=O)[C@H]32)[C@@H](C)[C@@H]1O`
Reply | 0.29

Taken from ChEMBL document CHEMBL2086327.
